Entries and their pIC50
Target protein (sequence): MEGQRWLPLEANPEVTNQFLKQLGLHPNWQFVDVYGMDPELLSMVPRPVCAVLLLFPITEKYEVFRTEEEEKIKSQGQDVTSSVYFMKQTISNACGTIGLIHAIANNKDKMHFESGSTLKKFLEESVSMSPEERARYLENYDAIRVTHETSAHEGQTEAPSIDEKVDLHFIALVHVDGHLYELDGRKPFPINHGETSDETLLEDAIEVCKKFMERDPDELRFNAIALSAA
pIC50: −log10 of the molar value.

{"COMPOUND": "N#CN1CCC[C@H]1C(=O)N1CCc2c(-c3c[nH]c4ncccc34)cccc21", "MEASURE NAME": "pIC50", "ENDPOINT VALUE": "5.00 to 6.00"}

Return reported pIC50; argument: "N#CN1CCC[C@@H]1C(=O)N1CCc2c(-c3c[nH]c4ncccc34)cccc21" < 5.00

Return reported pIC50; argument: CC(=O)O/N=C1\C(=O)N(Cc2cc(Cl)ccc2Cl)c2ccc(Cl)cc21 [LDN-57444, reference compound] < 5.00

Return reported pIC50; argument: "C#Cc1cnc2[nH]cc(-c3cccc4c3CCN4C(=O)[C@@H]3CCCN3C#N)c2c1" 5.00 to 6.00

---

Target chain: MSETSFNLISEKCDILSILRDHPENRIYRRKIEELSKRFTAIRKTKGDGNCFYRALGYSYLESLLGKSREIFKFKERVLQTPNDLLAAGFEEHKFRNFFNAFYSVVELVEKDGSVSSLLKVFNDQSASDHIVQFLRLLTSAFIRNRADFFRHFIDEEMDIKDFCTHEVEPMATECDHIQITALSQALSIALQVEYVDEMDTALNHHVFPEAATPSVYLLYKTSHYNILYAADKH
pIC50: −log10 of the molar value.
MEASURE NAME: pIC50

Look over these answered cases.
{"COMPOUND": "N#CN1CCC[C@H]1C(=O)N1CCc2c(-c3c[nH]c4ncccc34)cccc21", "MEASURE NAME": "pIC50", "ENDPOINT VALUE": "< 5.00"}
{"COMPOUND": "CC(=O)O/N=C1\\C(=O)N(Cc2cc(Cl)ccc2Cl)c2ccc(Cl)cc21 [LDN-57444, reference compound]", "MEASURE NAME": "pIC50", "ENDPOINT VALUE": "< 5.00"}

Proceeding to the next compound to report its pIC50.
Return reported pIC50; argument: "N#CN1CCC[C@@H]1C(=O)N1CCc2c(-c3c[nH]c4ncccc34)cccc21" < 5.00

---

TESTED SYSTEM: USP28 (Homo sapiens, UniProt Q96RU2)
Sequence (Q96RU2 1-1077): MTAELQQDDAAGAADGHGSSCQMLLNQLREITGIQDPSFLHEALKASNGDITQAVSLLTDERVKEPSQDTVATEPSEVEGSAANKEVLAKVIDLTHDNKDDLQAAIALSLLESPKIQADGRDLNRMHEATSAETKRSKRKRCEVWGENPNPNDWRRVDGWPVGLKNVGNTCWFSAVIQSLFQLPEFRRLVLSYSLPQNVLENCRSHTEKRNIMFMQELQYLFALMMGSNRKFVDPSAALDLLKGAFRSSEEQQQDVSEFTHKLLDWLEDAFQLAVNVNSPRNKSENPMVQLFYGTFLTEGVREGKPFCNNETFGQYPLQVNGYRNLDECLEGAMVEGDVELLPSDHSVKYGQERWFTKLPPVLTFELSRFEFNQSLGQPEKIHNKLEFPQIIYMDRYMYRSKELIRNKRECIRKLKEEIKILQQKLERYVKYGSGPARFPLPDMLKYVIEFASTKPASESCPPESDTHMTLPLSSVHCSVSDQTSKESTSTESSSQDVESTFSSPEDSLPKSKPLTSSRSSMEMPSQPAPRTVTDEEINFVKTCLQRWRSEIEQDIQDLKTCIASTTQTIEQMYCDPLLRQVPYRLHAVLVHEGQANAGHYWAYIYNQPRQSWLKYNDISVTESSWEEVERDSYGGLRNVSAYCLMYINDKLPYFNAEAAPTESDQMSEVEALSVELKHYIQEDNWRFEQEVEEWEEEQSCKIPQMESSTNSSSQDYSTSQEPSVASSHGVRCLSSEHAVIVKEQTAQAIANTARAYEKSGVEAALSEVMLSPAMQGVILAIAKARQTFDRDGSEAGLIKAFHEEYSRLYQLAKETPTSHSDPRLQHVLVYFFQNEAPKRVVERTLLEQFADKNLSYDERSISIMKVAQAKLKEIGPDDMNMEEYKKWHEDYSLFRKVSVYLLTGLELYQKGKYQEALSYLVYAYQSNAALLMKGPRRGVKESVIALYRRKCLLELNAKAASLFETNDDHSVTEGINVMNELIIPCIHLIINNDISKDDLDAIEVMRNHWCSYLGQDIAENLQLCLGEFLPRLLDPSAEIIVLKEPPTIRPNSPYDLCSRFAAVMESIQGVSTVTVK
MEASURE NAME: IC50

Look over these answered cases.
{"COMPOUND": "N#CN1CCC[C@H]1C(=O)N1CCc2c(-c3c[nH]c4ncccc34)cccc21 [Compound 1]", "MEASURE NAME": "IC50", "ENDPOINT VALUE": "> 10 µM"}
{"COMPOUND": "CC(=O)O/N=C1\\C(=O)N(Cc2cc(Cl)ccc2Cl)c2ccc(Cl)cc21 [LDN-57444, reference compound]", "MEASURE NAME": "IC50", "ENDPOINT VALUE": "> 10 µM"}

Proceeding to the next compound to report its IC50.
Return reported IC50; argument: C#Cc1cnc2[nH]cc(-c3cccc4c3CCN4C(=O)[C@@H]3CCCN3C#N)c2c1 [Compound 2] > 10 µM

---

Entries and their pIC50
Target sequence: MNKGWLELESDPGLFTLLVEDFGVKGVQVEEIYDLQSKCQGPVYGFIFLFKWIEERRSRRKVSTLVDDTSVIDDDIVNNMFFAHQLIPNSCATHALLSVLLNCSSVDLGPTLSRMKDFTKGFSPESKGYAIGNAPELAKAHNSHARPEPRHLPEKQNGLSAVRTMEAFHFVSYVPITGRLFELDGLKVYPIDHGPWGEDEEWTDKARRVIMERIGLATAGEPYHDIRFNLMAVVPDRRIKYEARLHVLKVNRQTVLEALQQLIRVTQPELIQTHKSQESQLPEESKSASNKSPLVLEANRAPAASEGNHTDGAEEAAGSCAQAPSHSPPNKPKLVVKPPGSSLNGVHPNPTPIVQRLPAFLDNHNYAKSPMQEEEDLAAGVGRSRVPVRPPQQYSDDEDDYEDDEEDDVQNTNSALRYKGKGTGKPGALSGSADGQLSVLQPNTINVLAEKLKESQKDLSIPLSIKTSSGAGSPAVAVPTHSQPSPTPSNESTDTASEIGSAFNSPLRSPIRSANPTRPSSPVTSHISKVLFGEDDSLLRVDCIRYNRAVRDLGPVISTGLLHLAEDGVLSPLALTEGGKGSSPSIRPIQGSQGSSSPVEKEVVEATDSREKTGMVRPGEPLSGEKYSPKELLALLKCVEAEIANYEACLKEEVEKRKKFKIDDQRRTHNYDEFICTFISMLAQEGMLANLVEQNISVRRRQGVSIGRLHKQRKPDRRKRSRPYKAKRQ
pIC50: −log10 of the molar value.

{"COMPOUND": "CC(=O)O/N=C1\\C(=O)N(Cc2cc(Cl)ccc2Cl)c2ccc(Cl)cc21 [LDN-57444, reference compound]", "ENDPOINT VALUE": "< 5.00"}
{"COMPOUND": "N#CN1CCC[C@@H]1C(=O)N1CCc2c(-c3c[nH]c4ncccc34)cccc21 [Compound 3]", "ENDPOINT VALUE": "< 5.00"}

Proceeding to the next compound to report its pIC50.
Return reported pIC50; argument: N#CN1CCC[C@H]1C(=O)N1CCc2c(-c3c[nH]c4ncccc34)cccc21 [Compound 1] 5.00 to 6.00

---

TESTED SYSTEM: UniProt P09936
Sequence (P09936 whole entry): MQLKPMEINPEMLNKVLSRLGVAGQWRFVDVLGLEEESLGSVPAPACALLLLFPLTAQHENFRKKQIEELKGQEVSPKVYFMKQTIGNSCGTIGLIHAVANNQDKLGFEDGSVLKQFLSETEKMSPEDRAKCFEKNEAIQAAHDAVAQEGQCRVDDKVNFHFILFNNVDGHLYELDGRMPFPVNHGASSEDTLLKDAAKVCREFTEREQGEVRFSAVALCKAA
ASSAY NAME: HTRF in-cell UCHL1 activity assay with HA-Ub-VME in Cal51 cells
MEASUREMENT SETUP: Cal51 cells stably expressing FLAG-UCHL1, 1 h, HA-Ub-VME 100 nM
Entries and their pIC50
Worth noting: pIC50 values are minus log10 of concentrations stated in mol/L.

Look over these answered cases.
{"COMPOUND": "C#Cc1cnc2[nH]cc(-c3cccc4c3CCN4C(=O)[C@@H]3CCCN3C#N)c2c1 [Compound 2]", "pIC50": 6.96}
{"COMPOUND": "N#CN1CCC[C@H]1C(=O)N1CCc2c(-c3c[nH]c4ncccc34)cccc21 [Compound 1]", "pIC50": 6.09}

Lookup: pIC50 / UniProt P09936 / N#CN1CCC[C@@H]1C(=O)N1CCc2c(-c3c[nH]c4ncccc34)cccc21 [Compound 3] 4.64

---

ASSAY NAME: FMT assay, cell number (DAPI nuclei count)
MEASUREMENT SETUP: human
MEASURE NAME: EC50 at 3 days

Look over these answered cases.
{"COMPOUND": "C#Cc1cnc2[nH]cc(-c3cccc4c3CCN4C(=O)[C@@H]3CCCN3C#N)c2c1 [Compound 2]", "MEASURE NAME": "EC50 at 3 days", "ENDPOINT VALUE": "~11 µM"}
{"COMPOUND": "N#CN1CCC[C@@H]1C(=O)N1CCc2c(-c3c[nH]c4ncccc34)cccc21 [Compound 3]", "MEASURE NAME": "EC50 at 3 days", "ENDPOINT VALUE": "~23 µM"}
{"COMPOUND": "COC(=O)c1ccc2c(c1)NC(=O)/C2=C(\\Nc1ccc(N(C)C(=O)CN2CCN(C)CC2)cc1)c1ccccc1 [nintedanib, reference compound]", "MEASURE NAME": "EC50 at 3 days", "ENDPOINT VALUE": "~18 µM"}

Return reported EC50 at 3 days; argument: N#CN1CCC[C@H]1C(=O)N1CCc2c(-c3c[nH]c4ncccc34)cccc21 [Compound 1] ~11 µM

Value source: paper PMC7366380
